Where do the numbers come from? From ChEMBL document CHEMBL1122363.

# Organism: Rattus norvegicus
# PROTOCOL SUMMARY: Tested for antidiuretic activity in rat
# Type: functional, Urine
# Set-up: unit not given here
Positions of bridges follow the written chain, without caps; N, C: chain ends. Non-standard residues stand in square brackets, D forms with d. Residues, ends and D or L forms follow the SMILES beside them. NMeA = CN[C@@H](C)C(=O)O; Mpa = O=C(O)CCS; Sar = CNCC(=O)O

{"columns": ["COMPOUND", "Activity"],
 "data": [
  ["C[C@@H](C(=O)N[C@@H](CCCN=C(N)N)C(=O)NCC(N)=O)N(C)C(=O)[C@@H]1CSSCCC(=O)N[C@@H](Cc2ccc(O)cc2)C(=O)N[C@@H](Cc2ccccc2)C(=O)N[C@@H](CCC(N)=O)C(=O)N[C@@H](CC(N)=O)C(=O)N1 ([Mpa]YFQNC[NMeA]RG-NH2; disulfide 1-6)", 35],
  ["CC[C@H](C)[C@@H]1NC(=O)[C@H](Cc2ccc(O)cc2)NC(=O)[C@@H](N)CSSC[C@@H](C(=O)NCC(=O)N[C@@H](CC(C)C)C(=O)NCC(N)=O)NC(=O)[C@H](CC(N)=O)NC(=O)[C@H](CCC(N)=O)NC1=O", 0.0056],
  ["CC[C@H](C)[C@@H]1NC(=O)[C@H](Cc2ccc(O)cc2)NC(=O)[C@@H](N)CSSC[C@@H](C(=O)N[C@@H](C)C(=O)N[C@@H](CC(C)C)C(=O)NCC(N)=O)NC(=O)[C@H](CC(N)=O)NC(=O)[C@H](CCC(N)=O)NC1=O", 0.08],
  ["CN(CC(=O)N[C@@H](CCCN=C(N)N)C(=O)NCC(N)=O)C(=O)[C@@H]1CSSC[C@H](N)C(=O)N[C@@H](Cc2ccc(O)cc2)C(=O)N[C@@H](Cc2ccccc2)C(=O)N[C@@H](CCC(N)=O)C(=O)N[C@@H](CC(N)=O)C(=O)N1 (H-CYFQNC[Sar]RG-NH2; disulfide 1-6)", 110],
  ["CC[C@H](C)[C@@H]1NC(=O)[C@H](Cc2ccc(O)cc2)NC(=O)[C@@H](N)CSSC[C@@H](C(=O)N(C)[C@@H](C)C(=O)N[C@@H](CC(C)C)C(=O)NCC(N)=O)NC(=O)[C@H](CC(N)=O)NC(=O)[C@H](CCC(N)=O)NC1=O", 0.12],
  ["C[C@@H](C(=O)N[C@@H](CCCN=C(N)N)C(=O)NCC(N)=O)N(C)C(=O)[C@@H]1CSSC[C@H](N)C(=O)N[C@@H](Cc2ccc(O)cc2)C(=O)N[C@@H](Cc2ccccc2)C(=O)N[C@@H](CCC(N)=O)C(=O)N[C@@H](CC(N)=O)C(=O)N1 (H-CYFQNC[NMeA]RG-NH2; disulfide 1-6)", 35],
  ["CN(CC(=O)N[C@@H](CCCN=C(N)N)C(=O)NCC(N)=O)C(=O)[C@@H]1CSSCCC(=O)N[C@@H](Cc2ccc(O)cc2)C(=O)N[C@@H](Cc2ccccc2)C(=O)N[C@@H](CCC(N)=O)C(=O)N[C@@H](CC(N)=O)C(=O)N1 ([Mpa]YFQNC[Sar]RG-NH2; disulfide 1-6)", 193]
]}
